Species: Homo sapiens
METHOD: Selectivity index, ratio of Ki for recombinant PKCalpha (unknown origin) in presence of nuclear membrane mimetic lipid mixture to Ki for recombinant PKCepsilon (unknown origin) in presence of nuclear membrane mimetic lipid mixture
Assay type: cell membranes
ATTRIBUTE_MEASURED: Ratio Ki

Use these answered entries as a reference point.
| MOLECULE | READING |
| --- | --- |
| CC(C)CC(C/C=C1\CC(CO)(COC(=O)C(C)(C)C)OC1=O)CC(C)C (stereo not given) | 32.2 |
| CCCCCC1CC1CC1CC1CCCCCCCC(=O)OCC1(CO)C/C(=C\CC(C)C)C(=O)O1 (stereo not given) | 3 |

a = CCCCCC1OC1CC1OC1CCCCCCCC(=O)OCC1(CO)C/C(=C\CC(C)C)C(=O)O1 (stereo not given)
b = CCCCCC1CC1CC1CC1CCCCCCC/C=C1\CC(CO)(COC(=O)C(C)(C)C)OC1=O (stereo not given)
c = CCCCCC1CC1CC1CC1CCCCCCC/C=C1/CC(CO)(COC(=O)C(C)(C)C)OC1=O (stereo not given)
Query :: // ranking: key=Ratio Ki, reverse=True State the ranking by listing the labels in the requested order.
Result :: a, b, c

* * *

MEASURED_ON: Protein kinase C epsilon type (Homo sapiens, UniProt Q02156)
Sequence (Q02156 whole entry): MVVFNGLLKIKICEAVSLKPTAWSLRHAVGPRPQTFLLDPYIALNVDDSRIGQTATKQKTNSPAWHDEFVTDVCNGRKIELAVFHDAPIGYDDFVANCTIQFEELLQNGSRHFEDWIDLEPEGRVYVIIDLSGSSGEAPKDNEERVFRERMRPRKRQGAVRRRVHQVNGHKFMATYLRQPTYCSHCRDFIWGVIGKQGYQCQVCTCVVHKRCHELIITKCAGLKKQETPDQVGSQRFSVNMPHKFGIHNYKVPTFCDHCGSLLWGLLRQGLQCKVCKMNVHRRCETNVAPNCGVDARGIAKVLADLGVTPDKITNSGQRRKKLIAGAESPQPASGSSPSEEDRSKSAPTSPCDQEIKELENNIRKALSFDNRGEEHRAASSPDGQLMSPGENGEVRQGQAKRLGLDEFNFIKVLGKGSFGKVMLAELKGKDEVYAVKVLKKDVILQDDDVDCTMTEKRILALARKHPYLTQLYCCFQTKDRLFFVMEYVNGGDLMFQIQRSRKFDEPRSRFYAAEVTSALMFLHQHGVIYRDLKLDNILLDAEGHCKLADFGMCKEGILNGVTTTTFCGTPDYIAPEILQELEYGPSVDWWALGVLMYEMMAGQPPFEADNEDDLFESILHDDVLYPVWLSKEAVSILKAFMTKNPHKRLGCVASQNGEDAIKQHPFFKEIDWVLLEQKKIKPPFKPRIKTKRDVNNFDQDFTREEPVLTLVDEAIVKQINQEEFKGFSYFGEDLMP
METHOD: Displacement of [20-3H] phorbol 12, 13-dibutylate from recombinant PKCepsilon (unknown origin) in presence of nuclear membrane mimetic lipid mixture
Assay type: cell membranes
ATTRIBUTE_MEASURED: Ki (nM)

Use these answered entries as a reference point.
| COMPOUND | READING |
| --- | --- |
| CCCCCCCCCCCCCCCCCC(=O)OCC1(CO)C/C(=C\CC(C)C)C(=O)O1 (stereo not given) | 47 |
| CCCCCC=CCC=CCCCCCCCC(=O)OCC1(CO)C/C(=C/CC(C)C)C(=O)O1 (stereo not given) | 19.5 |
| CCCCC/C=C\C/C=C\CCCCCCC/C=C1/CC(CO)(COC(=O)C(C)(C)C)OC1=O (stereo not given) | 9.6 |

a = CCCCCC1CC1CC1CC1CCCCCCCC(=O)OCC1(CO)C/C(=C/CC(C)C)C(=O)O1 (stereo not given)
b = CCCCCC1CC1CC1CC1CCCCCCC/C=C1/CC(CO)(COC(=O)C(C)(C)C)OC1=O (stereo not given)
Query :: Sort a and b by Ki descending and give the first. Lab note: record the label of whichever item you select.
Result :: b

* * *

MEASURED_ON: Protein kinase C alpha type (Homo sapiens)
METHOD: Displacement of [20-3H] phorbol 12, 13-dibutylate from recombinant PKCalpha (unknown origin) in presence of 100 ug/ml 100% phosphatidylserine
pKi: −log10 of the molar value.
ATTRIBUTE_MEASURED: pKi

| COMPOUND | pKi |
| --- | --- |
| CCCCC/C=C\C/C=C\CCCCCCC/C=C1/CC(CO)(COC(=O)C(C)(C)C)OC1=O (stereo not given) | 8.14 |
| CCCCCC1CC1CC1CC1CCCCCCC/C=C1\CC(CO)(COC(=O)C(C)(C)C)OC1=O (stereo not given) | 7.57 |

P = CCCCCC=CCC=CCCCCCCCC(=O)OCC1(CO)C/C(=C/CC(C)C)C(=O)O1 (stereo not given)
Q = CCCCCC1OC1CC1OC1CCCCCCCC(=O)OCC1(CO)C/C(=C\CC(C)C)C(=O)O1 (stereo not given)
R = CCCCCCCCCCCCCCCCCC(=O)OCC1(CO)C/C(=C\CC(C)C)C(=O)O1 (stereo not given)
Query :: Order the records, beginning with the lowest pKi and ending with the highest. State the ranking by listing the labels in the requested order.
Result :: R, Q, P
